B1: TPR 5TU (parent)
chain: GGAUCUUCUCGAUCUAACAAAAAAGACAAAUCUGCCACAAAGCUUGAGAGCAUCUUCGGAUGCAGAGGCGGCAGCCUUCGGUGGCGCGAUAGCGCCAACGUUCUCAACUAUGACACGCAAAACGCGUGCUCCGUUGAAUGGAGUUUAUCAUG

Variants of: B1
METHOD_SUMMARY: polymerase ribozyme fitness, log enrichment relative to wild type (log ratio); higher = more active; in vitro selection for triplet polymerase activity
This sample holds only a part of the variants without activity.
MEASURE: polymerase ribozyme fitness (log ratio)
Format: numeric value only, no unit, no commentary.

Some solved cases for reference:
Ask | Supply recorded polymerase ribozyme fitness (log ratio) for A19U G136C here.
Reply | -3.86

Ask | Supply recorded polymerase ribozyme fitness (log ratio) for A26C C54G A121G here.
Reply | -2.79

Ask | Supply recorded polymerase ribozyme fitness (log ratio) for G84U C95G A122U G152C here.
Reply | -3.55

Ask | Supply recorded polymerase ribozyme fitness (log ratio) for A20G C85G here.
Reply | -2.92

Ask | Supply recorded polymerase ribozyme fitness (log ratio) for C85G G88A here.
Reply | -4.01

More entries:
Ask | Supply recorded polymerase ribozyme fitness (log ratio) for G83U C95U C118U U144A here.
Reply | -3.4

Ask | Supply recorded polymerase ribozyme fitness (log ratio) for G11A C54G G94A here.
Reply | -2.96

Where do these numbers come from? They come from the RNAGym collection of RNA variant scans (doi:10.1073/pnas.2313332121).
